Values from PubChem BioAssay AID330

Give T/C for every item shown.
Tested on: P388 leukemia ip, CD2F1 mice, survival T/C
Experiment: NCI In Vivo Anticancer Drug Screen. Data for tumor model P388 Leukemia (intraperitoneal) in CD2F1 (CDF1) mice
Settings: endpoint: median survival time; dose: 100.0 mg/kg/injection; schedule: Q01DX001 (ip); vehicle: Klucel (hydroxypropylcellulose) (HPC); higher = longer survival
Toxic doses and inconclusive results are not listed.

Some solved cases for reference:
# compound, T/C
records = [
    ("CC(C)COP(=O)([O-])OCC[N+](C)(C)C", "104 % of control"),
    ("O=c1[nH]c2nc3ccccc3n2c(=O)c2ccccc12", "98 % of control"),
    ("Nc1nccn2cnnc12", "100 % of control"),
    ("Cc1ccc(S(=O)(=O)N/N=C2/C=CC3(CC2)CC2C=CC3C2)cc1 (stereo not drawn)", "89 % of control"),
    ("Cc1ccc(S(=O)(=O)N/N=C/c2c(Cl)n(C(=O)c3cccc(C)c3)c3ccccc23)cc1", "90 % of control"),
    ("O=C(O)c1ccc(N=Nc2ccc(N(CCCl)CCCl)cc2C(=O)O)cc1", "107 % of control"),
]

Give T/C for each listed item.
1. O=Cc1c(Br)n(-c2ccccc2)c2ccccc12
2. COC1C2OC(C)(C)OC2OC1C(C)N(C)O (stereo not drawn)
3. N#CCN=NNc1ccc([N+](=O)[O-])cc1
4. CC(=O)OC1C(=O)C2C(CC=C3CC(O)CC(O)C32C)C2CCC(C(C)C3CC(C)C(C)(C)O3)C12C (stereo not drawn)
5. COC1=CC(=O)c2cc3ccc(OC)c(N)c3nc2C1=O
6. OC1CC2CCCCC2CC1C1CCCCC1 (stereo not drawn)
7. CN(/N=C\c1ccccc1)C(=N)N(C)/N=C/c1ccccc1

Result ::
1: 102 % of control; 2: 103 % of control; 3: 115 % of control; 4: 100 % of control; 5: 100 % of control; 6: 90 % of control; 7: 91 % of control

Give T/C for each listed item.
1. COc1ccc(C(C)(O)C2CC2)cc1 (stereo not drawn)
2. COc1cc2c(OC)c(c1)CCC1=CC(=O)C(=CC1=O)CC2
3. CCSc1nsc(NC(C)=O)n1
4. CCc1nnc2cccc(Cl)n12
5. O=C(Oc1ccc(OC(=O)c2ccc([N+](=O)[O-])cc2)cc1)c1ccccc1
6. O=C(NCCCl)Oc1cc(Cl)c(Cl)cc1Cl

Result ::
["107 % of control", "99 % of control", "104 % of control", "100 % of control", "95 % of control", "102 % of control"]

Give T/C for each listed item.
1. O=C1CC(C2(c3ccccc3)SCCCS2)CO1 (stereo not drawn)
2. OCc1c(-c2ccccc2)nc2n1CCS2
3. CCOP(=Nc1cc(C)ccc1C)(OCC)OCC
4. CCOc1ccc(-n2c(=O)c(N=Nc3ccc(OC)cc3)c(O)n(-c3ccccc3Cl)c2=S)cc1

Result ::
1. 99 % of control
2. 102 % of control
3. 100 % of control
4. 94 % of control

----------
Give T/C for every item shown.
System: P388 leukemia ip, CD2F1 mice, survival T/C
Test: NCI In Vivo Anticancer Drug Screen. Data for tumor model P388 Leukemia (intraperitoneal) in CD2F1 (CDF1) mice
Conditions: endpoint: median survival time; dose: 25.0 mg/kg/injection; schedule: Q01DX005 (ip); vehicle: saline; higher = longer survival
Toxic doses and inconclusive results are not listed. Peptide text beside a SMILES is read from it.

# molecule, reported-result
records = [
    ("CC(C)CC(N)C(=O)NC(C)C(=O)NC(CC(C)C)C(=O)O (stereo not drawn) (H-Leu-Ala-Leu-OH; configuration not given here)", "101 % of control"),
    ("NC1=NC(O)C=C1 (stereo unspecified)", "107 % of control"),
    ("O=[N+]([O-])C1=CC(=N/Cl)/C=CC/1=N/Cl", "100 % of control"),
]

Give T/C for each listed item.
1. O=[N+]([O-])c1ccc(-[n+]2ccc3ccccc3c2)c([N+](=O)[O-])c1
2. CNC(=O)ON(C(C)=O)C(=O)NC
3. Cc1c(O)c(=O)ccn1C1OC(CO)C(O)C1O (stereo unspecified)
4. NC(N)=NCCCC(N)C(=O)N1CCCC1C(=O)N1CCCC1C(=O)NC(CCCN=C(N)N)C(=O)O (stereo unspecified) (H-RPPR-OH; configuration not given here)
5. CN1CC(C(N)=O)=CC(C(N)=O)C1 (stereo unspecified)

Result ::
1: 106 % of control; 2: 116 % of control; 3: 99 % of control; 4: 105 % of control; 5: 97 % of control
